The reported numbers originate from BigSolDB 2.1.

- PROTOCOL CONDITIONS: in methanol, 318.15 K

# MOLECULAR STRING, solubility (mole fraction)
measured = [
    ("c1ccc2[nH]c(-c3cscn3)nc2c1", 0.00273),
]

###

- PROTOCOL CONDITIONS: in water, 313.15 K

# MOLECULAR STRING, solubility (mole fraction)
data = [
    ("c1ccc2[nH]c(-c3cscn3)nc2c1", "8.6e-07"),
]

###

- PROTOCOL CONDITIONS: in methanol, 293.15 K

# MOLECULAR STRING, solubility (mole fraction)
records = [
    ("c1ccc2[nH]c(-c3cscn3)nc2c1", 0.00163),
]
